Each item that follows carries a reported Neuraminidase activity normalized to vehicle.
Test system: influenza A H1N1 virus
Conditions: 22,2 µM peptide, 48 hr post-treatment, A549

Some solved cases for reference:
>>> result("MSKKPGGPGKNRAVN [CPEP42]")
"1,055"
>>> result("IQIGNHNAM [CPEP67]")
"0,5849"
>>> result("LRKRRKRL [CPEP145]")
"0,839"
>>> result("TRVESENKVVILDSFD [CPEP93]")
"1,1929"
>>> result("DDLYEEV [CPEP111]")
"0,8898"

## Input I am curious: what Neuraminidase activity normalized to vehicle value has been reported for PPIPPPR [CPEP151] ?
## Output 0,9273

## Input I am curious: what Neuraminidase activity normalized to vehicle value has been reported for RRRETQV [CPEP148] ?
## Output 0,8272
